List of Relative KD (fold vs VH0/VL0) values.
# targetDesc: recombinant human GITR (Cat No. 13643-H08H, Lot No. LC12JA2509, Sino Biological) (human) (UniProt Q9Y5U5)
# assayNotes: SPR Biacore 8K, multi-cycle kinetics, purified IgG captured on Protein A, GITR as analyte

binder	Relative KD (fold vs VH0/VL0)
anti-GITR 51B VH4/VL4 humanized antibody (human IgG1, kappa) (antibody, V domains shown) VH: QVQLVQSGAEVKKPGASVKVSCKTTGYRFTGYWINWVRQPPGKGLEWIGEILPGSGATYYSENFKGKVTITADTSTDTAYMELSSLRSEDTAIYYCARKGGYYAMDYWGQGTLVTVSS VL: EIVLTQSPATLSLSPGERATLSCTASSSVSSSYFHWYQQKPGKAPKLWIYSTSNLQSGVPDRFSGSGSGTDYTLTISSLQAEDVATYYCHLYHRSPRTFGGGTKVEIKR	1.45
anti-GITR 51B VH0/VL0 chimeric antibody (human IgG1, kappa) (antibody, V domains shown, Chimeric antibody; also called VH0/Vk0; 51B VH0/Vk0) VH: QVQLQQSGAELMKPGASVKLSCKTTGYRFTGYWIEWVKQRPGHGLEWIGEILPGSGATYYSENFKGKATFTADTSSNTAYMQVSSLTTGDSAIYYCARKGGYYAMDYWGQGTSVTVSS VL: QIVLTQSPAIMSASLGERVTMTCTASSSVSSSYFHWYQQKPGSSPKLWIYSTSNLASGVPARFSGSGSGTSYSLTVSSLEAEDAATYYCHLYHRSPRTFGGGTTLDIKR	1
anti-GITR 51B VH3/VL1 humanized antibody (human IgG1, kappa) (antibody, V domains shown) VH: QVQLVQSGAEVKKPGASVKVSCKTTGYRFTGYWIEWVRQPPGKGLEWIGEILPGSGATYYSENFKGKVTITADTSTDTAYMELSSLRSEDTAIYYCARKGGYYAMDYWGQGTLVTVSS VL: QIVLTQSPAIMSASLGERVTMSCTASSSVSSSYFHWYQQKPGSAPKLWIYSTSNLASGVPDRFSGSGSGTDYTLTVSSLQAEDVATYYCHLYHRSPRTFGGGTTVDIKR	1.06

Cited source: patent EP4339209A1
